Taken from PubChem BioAssay (NCI).

- Method: NCI Yeast Anticancer Drug Screen. Data for the mec2-1 strain (AID 157)
- Conditions: S. cerevisiae mec2-1 strain, at 50.0 µM, stronger effect = higher value
Compounds without any hit were thinned out: in the full panel of roughly 79,000, 15% have a hit.
In this section, each of the molecules is paired with its reported growth inhibition.
Use % as the unit, but write only the number.

Known results for molecules:
>  <Molecule>
NNc1cc(Cl)ccc1Cl

>  <Result Value>
91.8

$$$$
>  <Molecule>
CCC[CH2][Sn]([CH2]CCC)([O]N(C)C(=O)c1ccc(Br)cc1)[O]N(C)C(=O)c1ccc(Br)cc1

>  <Result Value>
90.2

$$$$
>  <Molecule>
CCN(CCN1C(=O)C2CCCCC2C1=O)c1ccc(N=O)c(C)c1 (centres undefined)

>  <Result Value>
98.8

$$$$
>  <Molecule>
COC12C=CC(CC1)c1c2c(O)c2ccncc2c1O (centres undefined)

>  <Result Value>
56.7

$$$$
>  <Molecule>
CC1(C)CNCC(C)(OCc2ccccc2)C(=O)NC(C)(C)CNCC(C)(OCc2ccccc2)C(=O)N1 (centres undefined)

>  <Result Value>
-3.4

$$$$
>  <Molecule>
Cc1cc(C)n2nc(N)c(C#N)c2c1C#N

>  <Result Value>
7.85

$$$$
>  <Molecule>
O=C(OC1=C(Br)C(=O)c2ccccc2C1=O)c1ccccc1

>  <Result Value>
60.2

$$$$
>  <Molecule>
CCCCCCCCCCOC(=O)c1cccnc1

>  <Result Value>
39.3

$$$$

Field: next molecule
[Q] What measured growth inhibition goes with "[CH3][Sn]1([CH3])[O]C(=O)CCN=Cc2c(ccc3ccccc23)[O][Sn]([CH3])([CH3])[O]C(=O)CCN=Cc2c(ccc3ccccc23)[O]1" ?
[A] 92.8

###

- Method: NCI Yeast Anticancer Drug Screen. Data for the cln2 rad14 strain (AID 165);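 further: 0% = growth equal to vehicle treated cultures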
- Conditions: S. cerevisiae cln2 rad14 strain, at 50.0 µM, stronger effect = higher value
The panel holds about 79,000 compounds, 15% with a hit somewhere; the sample as a whole holds those more often.
Readout: growth inhibition (%)
Use % as the unit, but write only the number.

>  <Compound>
CC1=CC(=O)c2c(O)c3c(c(O)c2C1=O)C1C(O)C(C3=O)C23C(=O)c4c(O)c(C)cc(O)c4C(O)=C2C(=O)CC(O)C13 (stereo not given)

>  <growth inhibition [%]>
91.3

$$$$

[Q] What measured growth inhibition goes with "CCc1ccc(C(=O)O)c2ccccc12" ?
[A] 51.6

[Q] Record: "O=[N+]([O-])/C(C(Cl)=C(Cl)Cl)=C(/Cl)SCc1ccccc1"
[A] 91.5

[Q] Record: "CCCCCCCCCCCC[n+]1cc2ccccc2cc1C"
[A] 86.7

[Q] Record: CC12CCC3C(CCC4CC(O)CCC43C)C1CC1C2=NOC1O (stereo not given)
[A] 21

###

- Method: NCI Yeast Anticancer Drug Screen. Data for the mec2-1 strain (AID 157)
- Conditions: S. cerevisiae mec2-1 strain, at 50.0 µM (retest, dose inferred, filed as 5.0), stronger effect = higher value
About 79,000 compounds went through this panel and 15% of them were active in at least one assay; those are over-represented in the sample as a whole. The source made the active and inactive calls. Cut-off read from the data, not from the text of the source: active = growth inhibition above about 70%; inactive = the rest.
In this section, each of the compounds is paired with its reported growth inhibition.

Known results for compounds:
>  <Compound>
N#C/C(=C\c1cccnc1)c1csc2ccccc12

>  <Readout>
growth inhibition

>  <Result Value>
91% (active)

$$$$
>  <Compound>
CC(=O)Oc1ccc2cc(-c3ccccc3OC(C)=O)c(=O)oc2c1

>  <Readout>
growth inhibition

>  <Result Value>
-15% (inactive)

$$$$
>  <Compound>
CCc1cc2c(c3[nH]ccc13)[C@@H](C)C[C@H]2C

>  <Readout>
growth inhibition

>  <Result Value>
99% (active)

$$$$
>  <Compound>
CCCCCCCCCCCCNC(=O)C[n+]1ccc(C(N)=O)cc1

>  <Readout>
growth inhibition

>  <Result Value>
61% (inactive)

$$$$

Field: next compound
[Q] What measured growth inhibition goes with COc1ccc(C(=O)C2Cc3c(ccc4ccccc34)OC2=O)cc1 (stereo not given) ?
[A] -11% (inactive)

###

- Method: NCI Yeast Anticancer Drug Screen. Data for the mlh1 rad18 strain (AID 175)
- Conditions: S. cerevisiae mlh1 rad18 strain growth inhibition; at 50.0 µM; stronger effect = higher value
This is part of a sample that, as a whole, favours compounds with a hit. Of some 79,000 tested, about 15% had one in any assay.
Readout: growth inhibition (%)
Use % as the unit, but write only the number.

>  <Compound>
O=C1/C(=C\c2ccc(Cl)cc2Cl)Sc2scc(-c3cccc([N+](=O)[O-])c3)[n+]21

>  <Result Value>
90.9

$$$$
>  <Compound>
CN(/N=C\c1ccc2ccccc2c1)C1=NCCCN1

>  <Result Value>
60.9

$$$$
>  <Compound>
Cc1c2ccncc2cc2c1sc1ccncc12

>  <Result Value>
89.3

$$$$
>  <Compound>
COc1c(Br)c(=O)n(C)c(=O)n1C

>  <Result Value>
89

$$$$
>  <Compound>
CC1=CCCc2c1cc1ccc3cccc4ccc2c1c34

>  <Result Value>
89.8

$$$$
>  <Compound>
COc1ccc(-c2cc(C(=O)O)c3cccc(C(F)(F)F)c3n2)cc1

>  <Result Value>
89.7

$$$$
>  <Compound>
CO/C(=N\N=C(/c1ccccc1)C(F)(F)F)c1ccncc1

>  <Result Value>
65

$$$$
>  <Compound>
O=[N+]([O-])/C(Cl)=C(\Nc1ccccc1)C(Cl)=C(Cl)Cl

>  <Result Value>
85.1

$$$$
>  <Compound>
CCOc1ccc2c(c1)[n+]([O-])c(-c1ccc([N+](=O)[O-])cc1)c(N)[n+]2[O-]

>  <Result Value>
97.4

$$$$
>  <Compound>
CN(C)C(=S)/N=c1\ssc(=S)n1Cc1ccco1

>  <Result Value>
-4.25

$$$$

[Q] What measured growth inhibition goes with "COc1cc(/C=C\C(=O)c2cccc(O)c(=O)c2)cc(OC)c1OC" ?
[A] 54.9

[Q] Record: "Fc1ccc(C2(CCCN3CCc4[nH]c5cc(F)ccc5c4C3)OCCO2)cc1"
[A] 91

[Q] Record: CC(C)Cc1cc2c(cc1O)CCC1C2CC[C@@]2(C)C1CC[C@@H]2O (stereo partly drawn)
[A] 88.4

[Q] Record: "O=c1[nH][nH]c(=O)c2c1nc(SCc1ccccc1)n2Cc1ccccc1"
[A] 9.45

[Q] Record: "CC(=O)Oc1ccccc1C(=O)/C=C/c1ccccc1"
[A] 9.75

###

In this section, each of the compounds is paired with its reported growth inhibition.
- Method: NCI Yeast Anticancer Drug Screen. Data for the bub3 strain (AID 167)
- Conditions: S. cerevisiae bub3 mutant strain, at 50.0 µM, stronger effect = higher value
Compounds without any hit were thinned out: in the full panel of roughly 79,000, 15% have a hit. Where a SMILES comes first, the peptide text is derived from it. The star is where a group is joined. X7 = Clc1c(Cl)c(Cl)c(O*)c(Cl)c1Cl; Boc = CC(C)(C)OC(=O)*; OBn = c1ccc(CO*)cc1; Bn = c1ccc(C*)cc1
Use % as the unit, but write only the number.

>  <Compound>
C=CC(=C)OC

>  <growth inhibition, %>
39

$$$$
>  <Compound>
Cc1ncc(CO)c(C=NCCCCCCN=Cc2c(CO)cnc(C)c2[O-])c1[O-].[Cu+2]

>  <growth inhibition, %>
25.9

$$$$
>  <Compound>
CCOP(=O)(OCC)OC1c2[nH]ccc2-c2cc(C(=O)OC)[nH]c2C1OC (stereo not drawn)

>  <growth inhibition, %>
21.5

$$$$
>  <Compound>
CC(C)c1ncc(-c2ccccc2)cc1-c1ccccc1

>  <growth inhibition, %>
98.5

$$$$
>  <Compound>
OCCN=C1c2ccccc2C2C(c3ccccc31)C1c3ccccc3C(=NCCO)c3ccccc3C21 (stereo not drawn)

>  <growth inhibition, %>
40.5

$$$$

[Q] What measured growth inhibition goes with "CCCCN(CCCC)C(=O)c1ccc(OC(=O)OCC)c(OC)c1" ?
[A] 85.1

[Q] Record: "CCOC(=O)CSC(=S)Nc1ccc(Cl)cc1"
[A] 50.5

[Q] Record: "Cc1ccc(Nc2nc3nc[nH]c3c(=O)[nH]2)cc1CO"
[A] -8.75

[Q] Record: "C=C(CSCCCCCCCCCCCC)C(=O)O"
[A] 99.3

[Q] Record: CSc1nc(N)c2cnn(C3OC(CO)C(O)C3O)c2n1 (stereo not drawn)
[A] 12

[Q] Record: "CCOC(=O)c1sc(N/N=C2\NC(=O)/C(=C/c3ccc([N+](=O)[O-])cc3)S2)nc1C"
[A] 95.3

[Q] Record: CC(C)CC(NC(=O)C(CCC(=O)OCc1ccccc1)NC(=O)OC(C)(C)C)C(=O)NC(COCc1ccccc1)C(=O)NC(Cc1ccccc1)C(=O)Oc1c(Cl)c(Cl)c(Cl)c(Cl)c1Cl (stereo not drawn) (Boc-E(OBn)LS(Bn)F-X7; configuration not given here)
[A] 78

[Q] Record: "CC(C)(C)N=C=NC(c1ccccc1)(c1ccccc1)c1ccccc1"
[A] 4.5
